Ref: patent US20230031406A1

- System: PMA-differentiated THP-1 cells
- Procedure Text: hTHP-1 assay containing 10% fetal bovine serum (IL-1β production, Tables B5 and B6)
- Assay type: cell-based, human
- Settings: read-out: hTHP-1 IC50 in 10% FBS; hTHP-1 assay containing 10% fetal bovine serum; Table B5; listed as 835
pIC50: −log10 of the molar value.
Observation Type: pIC50

Summary line: CC(C)(O)c1csc(S(N)(=O)=NC(=O)Nc2c3c(nc(C(F)(F)F)c2C2CC2)CCC3)c1F (single isomer, unassigned) [Compound 1105b] , PMA-differentiated THP-1 cells, reported pIC50 = 6.00 to 6.70

----------
- Tested on: PMA-differentiated THP-1 cells
- Procedure Text: IL-1β production in PMA-differentiated THP-1 cells stimulated with gramicidin (hTHP-1 assay containing 2% fetal bovine serum; Procedures 1 and 2)
- Assay type: cell-based, human
- Settings: Homo sapiens, THP-1, Table B1; 2% fetal bovine serum; numeric bounds; read-out: Average IC50 of compounds in hTHP-1 assay: hTHP-1 IC50
Form field: IC50 (one value per entry).

Known IC50 results, listed for orientation:
CC1CCc2c1nc1c(c2NC(=O)N=S(N)(=O)c2ncc(C(C)(C)O)s2)CCC1 (single isomer, unassigned) [Compound 140bb] : > 30 µM
CC(C)(O)c1ncc(S(N)(=O)=NC(=O)Nc2c3c(nc4c2CCC4F)CCC3)s1 (single isomer, unassigned) [Compound 183b] : > 30 µM
CC(C)(O)c1ccc(S(N)(=O)=NC(=O)Nc2c3c(nc4c2CCC4)CCC3)s1 (single isomer, unassigned) [Compound 149b] : > 30 µM
CC1CCc2c1nc1c(c2NC(=O)N=S(N)(=O)c2ccn(C(C)C)n2)CCC1 (single isomer, unassigned) [Compound 129ab] : > 30 µM
Cc1c(-c2ccccc2)nc2c(c1NC(=O)N=S(N)(=O)c1cnc(C(C)(C)O)s1)CCC2 (single isomer, unassigned) [Compound 143a] : > 30 µM
Cc1nc(C)c(C)c(NC(=O)N=S(N)(=O)c2cnc(C(C)(C)O)s2)c1C (single isomer, unassigned) [Compound 133a] : > 30 µM
CC(C)(O)c1nc(S(N)(=O)=NC(=O)Nc2c3c(nc4c2CCC4)CCC3)cs1 (single isomer, unassigned) [Compound 154b] : > 28 µM
CN(C)Cc1ccc(S(N)(=O)=NC(=O)Nc2c3c(nc4c2CCC4)CCC3)cc1 (single isomer, unassigned) [Compound 130a] : > 30 µM

Form: molecule = Cc1nc(C(C)(C)O)ccc1S(N)(=O)=NC(=O)Nc1c2c(nc3c1CCC3)CCC2 (single isomer, unassigned) [Compound 157a] ; IC50 = > 30 µM

Form: molecule = CC(C)(O)c1ccc(S(N)(=O)=NC(=O)Nc2c3c(nc4c2CCC4)CCC3)cn1 (centres unmarked) [Compound 156] ; IC50 = > 30 µM

Form: molecule = CCc1c(C)nc2c(c1NC(=O)N=S(N)(=O)c1cnc(C(C)(C)O)s1)CCC2 (single isomer, unassigned) [Compound 117a] ; IC50 = > 30 µM
